Method Description: Pharmacokinetics in rats after tail vein injection
Format: in vivo, Sprague-Dawley rats
Condition Info: male, Sprague-Dawley, rat, plasma, iv, 6 mg/kg, intravenous injection 6 mg/kg
Reported Metric: AUC(0-t) (ng·h/mL)
Give the value in ng·h/mL but do not write ng·h/mL after it.

Molecule	AUC(0-t), ng·h/mL
Cc1ccc(OCCn2c(C)c(C=C3C(=O)NC(=S)NC3=O)c3ccccc32)c(C)c1 [ZLDI-8, reference compound]	58.8

Now look at this entry.
### Prompt Read the entry Cc1c(C=C2C(=O)NC(=S)NC2=O)c2ccccc2n1CCOc1ccc(F)cc1 and write its reported AUC(0-t).
### Response 370

---

Tested on: LoVo
Method Description: MTT cell viability assay
Assay type: cell-based, human
Condition Info: Homo sapiens, LoVo colorectal cancer cells
Reported Metric: pIC50
Notebook: values listed as pIC50 are -log10 of the concentration (mol/L).

Compound	Assay System	Reported Metric	Quantitative Readout
Cc1ccc(OCCn2c(C)c(C=C3C(=O)NC(=S)NC3=O)c3ccccc32)c(C)c1 [ZLDI-8, reference compound]	LoVo	pIC50	5.02
O=C1NC(=O)C(=Cc2cn(CCOc3cccc(F)c3)c3ccccc23)C(=O)N1	LoVo	pIC50	4.54
Cc1c(C=C2C(=O)NC(=O)NC2=O)c2ccccc2n1CCOc1cccc(F)c1	LoVo	pIC50	4.63

### Prompt Read the entry Cc1c(C=C2C(=O)NC(=S)NC2=O)c2ccccc2n1CCOc1cccc(C(F)(F)F)c1 and write its reported pIC50.
### Response 4.69

### Prompt Read the entry Cc1c(C=C2C(=O)NC(=O)NC2=O)c2ccccc2n1CCOc1ccc(F)cc1 and write its reported pIC50.
### Response 4.67

### Prompt Read the entry Cc1c(C=C2C(=O)NC(=O)NC2=O)c2ccccc2n1CCOc1cccc(C(F)(F)F)c1 and write its reported pIC50.
### Response 4.42

### Prompt Read the entry O=C1NC(=O)C(=Cc2cn(CCOc3cccc4ccccc34)c3ccccc23)C(=O)N1 and write its reported pIC50.
### Response 3.91

---

Method Description: Pharmacokinetics in rats after tail vein injection
Format: in vivo, Sprague-Dawley rats
Condition Info: male, Sprague-Dawley, rat, plasma, iv, 6 mg/kg, intravenous injection 6 mg/kg
Description: We used the online ADME prediction tool Swiss AMDE (http://www.swissadme.ch/index.php) (SwissADME, 2017) to analyze the physicochemical descriptors and ADME parameters of NY-2 and ZLDI-8, to predict their pharmacokinetic properties, drug-like nature, and medicinal chemistry. […] Plasma samples were subjected to a protein precipitation method for the quantitative analysis of ZLDI-8 and NY-2 by LC-MS/MS (API 3200MD, AB Sciex, United States). […]
Reported AUC(0-inf) values for a set of compounds
Give the value in ng·h/mL but do not write ng·h/mL after it.

Compound	Units Symbol	AUC(0-inf)
Cc1ccc(OCCn2c(C)c(C=C3C(=O)NC(=S)NC3=O)c3ccccc32)c(C)c1 [ZLDI-8, reference compound]	ng·h/mL	85.2

### Prompt Read the entry Cc1c(C=C2C(=O)NC(=S)NC2=O)c2ccccc2n1CCOc1ccc(F)cc1 and write its reported AUC(0-inf).
### Response 402

---

Test system: HCT116
Method Description: MTT cell viability assay
Assay type: cell-based, human
Design: key: -: poor activity, cannot be unified
Condition Info: HCT116 colorectal cancer cells
Reported Metric: IC50 HCT116

Given Smiles	Result
Cc1c(C=C2C(=O)NC(=O)NC2=O)c2ccccc2n1CCOc1ccc(Cl)cc1Cl	-
Cc1ccc(OCCn2c(C)c(C=C3C(=O)NC(=O)NC3=O)c3ccccc32)c(C)c1	-
Cc1c(C=C2C(=O)NC(=O)NC2=O)c2ccccc2n1CCOc1cccc2ccccc12	-
Cc1c(C=C2C(=O)NC(=O)NC2=O)c2ccccc2n1CCOc1cccc(C(F)(F)F)c1	-

---

Method Description: Pharmacokinetics in rats after tail vein injection
Type: in vivo, Sprague-Dawley rats
Condition Info: male, Sprague-Dawley, plasma, iv; rat, tail vein injection 6 mg/kg, mean ± SD, n = 6; read-out: MRT0-t
Reported MRT last values for a set of compounds
Give the value in min but do not write min after it.

Compound	MRT last, min
Cc1ccc(OCCn2c(C)c(C=C3C(=O)NC(=S)NC3=O)c3ccccc32)c(C)c1 [ZLDI-8, reference compound]	18.6

Now look at this entry.
### Prompt Read the entry Cc1c(C=C2C(=O)NC(=S)NC2=O)c2ccccc2n1CCOc1ccc(F)cc1 [NY-2] and write its reported MRT last.
### Response 64.2

---

Reported Cmax values for a set of compounds
Method Description: Pharmacokinetics in rats after tail vein injection
Format: in vivo, Sprague-Dawley rats
Condition Info: male, Sprague-Dawley, plasma, iv; rat, tail vein injection 6 mg/kg, mean ± SD, n = 6
Give the value in ng/mL but do not write ng/mL after it.

Compound	Units Symbol	Cmax
Cc1c(C=C2C(=O)NC(=S)NC2=O)c2ccccc2n1CCOc1ccc(F)cc1	ng/mL	2750

Now look at this entry.
### Prompt Read the entry Cc1ccc(OCCn2c(C)c(C=C3C(=O)NC(=S)NC3=O)c3ccccc32)c(C)c1 [ZLDI-8, reference compound] and write its reported Cmax.
### Response 337

---

Reported half-life values for a set of compounds
Method Description: Pharmacokinetics in rats after tail vein injection
Type: in vivo, Sprague-Dawley rats
Condition Info: male, Sprague-Dawley, plasma, iv; rat, tail vein injection 6 mg/kg, mean ± SD, n = 6
Give the value in h but do not write h after it.

Compound	half-life (h)
Cc1ccc(OCCn2c(C)c(C=C3C(=O)NC(=S)NC3=O)c3ccccc32)c(C)c1 [ZLDI-8, reference compound]	0.59

Now look at this entry.
### Prompt Read the entry Cc1c(C=C2C(=O)NC(=S)NC2=O)c2ccccc2n1CCOc1ccc(F)cc1 and write its reported half-life.
### Response 2.15

---

Method Description: Pharmacokinetics in rats after tail vein injection
Format: in vivo, Sprague-Dawley rats
Condition Info: male, Sprague-Dawley, plasma, intravenous; rat, tail vein injection 6 mg/kg, mean ± SD, n = 6
Excerpt: We used the online ADME prediction tool Swiss AMDE (http://www.swissadme.ch/index.php) (SwissADME, 2017) to analyze the physicochemical descriptors and ADME parameters of NY-2 and ZLDI-8, to predict their pharmacokinetic properties, drug-like nature, and medicinal chemistry. […] Plasma samples were subjected to a protein precipitation method for the quantitative analysis of ZLDI-8 and NY-2 by LC-MS/MS (API 3200MD, AB Sciex, United States). […]
Reported Metric: Cmax (ng/mL)
Give the value in ng/mL but do not write ng/mL after it.

Molecule	Units Symbol	Cmax
Cc1c(C=C2C(=O)NC(=S)NC2=O)c2ccccc2n1CCOc1ccc(F)cc1	ng/mL	2750

Now look at this entry.
### Prompt Read the entry Cc1ccc(OCCn2c(C)c(C=C3C(=O)NC(=S)NC3=O)c3ccccc32)c(C)c1 [ZLDI-8, reference compound] and write its reported Cmax.
### Response 337

---

Reported pIC50 values for a set of compounds
Tested on: H1993
Method Description: MTT cytotoxicity assay, NSCLC cells
Assay type: cell-based
Condition Info: Homo sapiens, NCI-H1993, 48 h
Notebook: values listed as pIC50 are -log10 of the concentration (mol/L).

Compound	pIC50
Cc1ccc(OCCn2c(C)c(C=C3C(=O)NC(=S)NC3=O)c3ccccc32)c(C)c1 [ZLDI-8, reference compound]	5.08

Now look at this entry.
### Prompt For H1993, give the measured pIC50 of the entry Cc1c(C=C2C(=O)NC(=S)NC2=O)c2ccccc2n1CCOc1ccc(F)cc1 [NY-2]
### Response 5.32
